# TESTED_TARGET: HIV Env of isolate Ce0682_E4 (clade C) (HIV)
# ASSAY_COMMENT: cell-based or functional assay
ENDPOINT: IC50 (µg/ml) with constrains (µg/mL)

INSERT INTO assay_data (binder, reported) VALUES
  ('ePGDM5 (antibody, V domains shown) VH: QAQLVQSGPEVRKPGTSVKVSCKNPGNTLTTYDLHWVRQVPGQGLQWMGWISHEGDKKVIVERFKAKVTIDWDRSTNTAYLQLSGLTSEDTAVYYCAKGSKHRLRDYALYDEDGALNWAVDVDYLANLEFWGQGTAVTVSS VL: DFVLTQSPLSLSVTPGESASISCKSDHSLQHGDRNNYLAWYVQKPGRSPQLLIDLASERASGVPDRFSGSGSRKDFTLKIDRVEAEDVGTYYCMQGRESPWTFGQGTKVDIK', 0.005);
